Here the recorded EC50 (ng/ml), inhibition of Heregulin-induced MCF7 cell proliferation is given for each entry.
Biological target: human ErbB2, full length, on cells (human, UniProt P04626 23-1255)
Assay: cell-based or functional assay
Report the value in ng/mL with no unit label.

- binder: "monoclonal antibody 1.100.1 (antibody, V domains shown, Fully human IgG (gamma/kappa) from a XenoMouse XM3B-3 hybridoma; constant regions not tied to it; also called 1.100.2; 1.100.3) VH: EVQLVESGGGLVKPGGSLRLSCAASGFTFSSYSMNWVRQAPGKGLEWVSSISSSSSYIYYADSVKGRFTISRDNAKNSLYLQMNSLRAEDTAVYYCARGGDGYNYYYFDYWGQGTLVTVSS VL: DIVMTQSPDSLAVSLGERATITCKSSQSVFFRSNNKNCLAWYQQRPGQPPNLLIYWASTRESGVPDRFSGSGCGTDFTLTISSLQAEDVAVYYCQQYFGSPFTFGPGTKVDIK"
  unit_spec: "ng/mL"
  test_value: 2040

Next:
Qu. Note EC50 (ng/ml), inhibition of Heregulin-induced MCF7 cell proliferation for the binder shown: monoclonal antibody 1.14.1 (antibody, V domains shown, Fully human IgG (gamma/kappa) from a XenoMouse XM3B-3 hybridoma; constant regions not tied to it) VH: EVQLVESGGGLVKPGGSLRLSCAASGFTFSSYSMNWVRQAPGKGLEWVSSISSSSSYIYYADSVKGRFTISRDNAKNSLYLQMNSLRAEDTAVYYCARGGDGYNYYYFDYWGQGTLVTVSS VL: DIVMTQSPDSLAVSLGERATITCKSSQSVFFRSNNKNCLTWYQQRPGQPPNLLIYWASTRESGVPDRFSGSGSGTDFTLTINNLQAEDVAVYYCQQYFGSPFTFGPGTKVDIK
Ans. 640
